SUBJECT_OF_TEST: Large T antigen (Simian virus 40) (UniProt P03070)
Sequence (P03070 whole entry, looked up): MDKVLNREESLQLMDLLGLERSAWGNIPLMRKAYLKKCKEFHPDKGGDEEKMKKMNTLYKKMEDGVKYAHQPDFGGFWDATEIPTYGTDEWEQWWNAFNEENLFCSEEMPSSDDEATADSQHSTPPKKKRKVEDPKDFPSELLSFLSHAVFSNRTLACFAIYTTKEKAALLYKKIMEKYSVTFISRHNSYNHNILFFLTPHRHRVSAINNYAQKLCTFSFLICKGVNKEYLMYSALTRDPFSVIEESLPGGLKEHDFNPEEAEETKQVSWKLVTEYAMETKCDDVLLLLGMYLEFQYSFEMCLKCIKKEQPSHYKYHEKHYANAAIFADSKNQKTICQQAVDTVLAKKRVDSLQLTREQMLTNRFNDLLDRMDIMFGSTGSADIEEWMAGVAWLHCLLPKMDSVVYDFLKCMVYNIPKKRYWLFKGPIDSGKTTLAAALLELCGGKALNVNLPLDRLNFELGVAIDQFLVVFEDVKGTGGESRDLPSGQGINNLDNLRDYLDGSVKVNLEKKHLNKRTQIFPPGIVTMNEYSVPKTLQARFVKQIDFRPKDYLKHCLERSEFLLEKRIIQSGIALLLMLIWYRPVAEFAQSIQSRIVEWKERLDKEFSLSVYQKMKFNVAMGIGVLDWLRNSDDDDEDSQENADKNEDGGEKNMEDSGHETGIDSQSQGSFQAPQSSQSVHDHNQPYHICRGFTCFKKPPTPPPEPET
TEST_NAME: SV40 large T antigen inhibitors, biochemical (AID 1903)
EXPERIMENTAL_PARAMETERS: SV40 large T antigen ATPase/helicase inhibition assay; at 20 µM; stronger effect = higher value
In all, about 310,000 compounds went through this assay and about 1,200 (0.39%) were called active. The list is a sample of the results. Measured potencies and affinities stand elsewhere.
# if value of inhibition reaches 10%, tag condition met; if it stays below, tag condition not met

SMILES_STR | ASSIGNED_CATEGORY
COc1cc(CNCCCN2CCOCC2)ccc1OCC(=O)NC(C)(C)C | condition not met
NC(=O)c1cc(-c2ccccc2)sc1NC(=O)CN1CCCCC1 | condition met
CCN(CC)c1ccc(/C=N\NC(N)=O)cc1 | condition met
COc1cc(CNCCN2CCOCC2)ccc1OCC(=O)NC(C)(C)C | condition not met
